The reader will find reported IC50 values listed item by item below.
target: Prostaglandin G/H synthase 1 (Homo sapiens)
Sequence (P23219 whole entry): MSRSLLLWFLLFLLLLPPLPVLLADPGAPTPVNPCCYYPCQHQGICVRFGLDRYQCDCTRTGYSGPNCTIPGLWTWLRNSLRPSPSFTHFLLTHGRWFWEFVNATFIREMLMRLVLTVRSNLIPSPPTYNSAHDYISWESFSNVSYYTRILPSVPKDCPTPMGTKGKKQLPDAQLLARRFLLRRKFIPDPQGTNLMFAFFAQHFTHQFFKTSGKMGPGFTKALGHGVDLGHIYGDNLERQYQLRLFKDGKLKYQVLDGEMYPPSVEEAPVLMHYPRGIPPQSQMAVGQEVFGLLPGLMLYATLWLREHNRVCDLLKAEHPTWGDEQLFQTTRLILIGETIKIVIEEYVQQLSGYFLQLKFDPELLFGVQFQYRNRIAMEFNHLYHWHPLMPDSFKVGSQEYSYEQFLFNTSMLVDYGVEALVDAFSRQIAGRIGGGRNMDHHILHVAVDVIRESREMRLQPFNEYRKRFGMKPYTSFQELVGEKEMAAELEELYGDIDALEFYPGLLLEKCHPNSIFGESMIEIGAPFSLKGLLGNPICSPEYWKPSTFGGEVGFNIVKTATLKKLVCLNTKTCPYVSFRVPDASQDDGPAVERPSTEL
Give the value, in units of µM, as a plain number.

Worked set:
O=S(=O)(Nc1ccncc1Nc1ccc(F)cc1)C(F)(F)F :: 0.27
Cc1cc(C)cc(Nc2cnccc2NS(=O)(=O)C(F)(F)F)c1 :: 4.11
O=S(=O)(C1CC1)N(c1ccncc1Nc1ccccc1)S(=O)(=O)C1CC1 :: 19.6
CS(=O)(=O)Nc1ccncc1Nc1cccc(F)c1 :: 1.37
N#Cc1cccc(Nc2cnccc2NS(=O)(=O)C(F)(F)F)c1 :: 6.65
CS(=O)(=O)Nc1ccncc1Nc1ccc(F)cc1 :: 2.09

Now for another entry.
Lab note: need IC50 for O=S(=O)(Nc1ccncc1Nc1ccc(O)c(Br)c1)C(F)(F)F on Prostaglandin G/H synthase 1 (Homo sapiens), anyone have it?
4.21
